These measurements were taken from patent US20100022509A1.

# assayed_target: MshC (Mycobacterium tuberculosis, UniProt P9WJM9)
# assay_explanation: biochemical
# Format: biochemical, M. tuberculosis
# condition_info: IC50
measured_attribute: IC50

CCN1CCN(CCCNC(=O)c2ccc3c(c2)N(Cc2ccccc2)C(=O)c2ccccc2S3(=O)=O)CC1 ... > 3000 µM
CC1CC(C)CN(CCCNC(=O)c2ccc3c(c2)N(Cc2cccc(Cl)c2)C(=O)c2ccccc2S3(=O)=O)C1 (stereo not shown) ... 2300 µM
O=C(NCCCSC1CCCCC1)c1ccc2c(c1)N(Cc1ccccc1)C(=O)c1ccccc1[S+]2[O-] (stereo not shown) ... > 3000 µM
O=C(NCCCN1CCCC1)c1ccc2c(c1)N(Cc1cccc(Cl)c1)C(=O)c1ccccc1S2(=O)=O ... ~500 µM

Briefly, IC50 measured for CC(C)CN(CCCNC(=O)c1ccc2c(c1)N(Cc1ccccc1)C(=O)c1ccccc1S2(=O)=O)CC(C)C : > 3000 µM

Briefly, IC50 measured for O=C(NCCCN1CCN(c2ccc(F)cc2)CC1)c1ccc2c(c1)N(Cc1ccc(Cl)cc1)C(=O)c1ccccc1S2(=O)=O : ~2000 µM

Briefly, IC50 measured for CCCCN(CC)CCCNC(=O)c1ccc2c(c1)N(CC)C(=O)c1ccccc1S2(=O)=O : > 3000 µM

Briefly, IC50 measured for Cc1ccc(C)c(CN2C(=O)c3ccccc3S(=O)(=O)c3ccc(C(=O)NCCCN(C)C4CCCCC4)cc32)c1 : ≥ 500 µM

Briefly, IC50 measured for CCN1C(=O)c2ccccc2S(=O)(=O)c2ccc(C(=O)NCCCN3CCCCCC3)cc21 : ~3000 µM

Briefly, IC50 measured for O=C(NCC1CCN(Cc2ccccc2)CC1)c1ccc2c(c1)N(Cc1cccc(Cl)c1)C(=O)c1ccccc1S2(=O)=O : > 3000 µM

====

# assayed_target: MshC (Mycobacterium tuberculosis, UniProt P9WJM9)
# assay_explanation: biochemical
# Assay type: biochemical, M. tuberculosis
# condition_info: IC50
pIC50: −log10 of the molar value.
Threshold rule: pIC50 greater than or equal to 3 is satisfied; below that, not satisfied.

// known answers, use as guide
CCCCSCCCNC(=O)c1ccc2c(c1)N(Cc1cccc(Cl)c1)C(=O)c1ccccc1[S+]2[O-] (stereo not drawn) [Inhibitor 83-74] ... not satisfied
CN(CCCNC(=O)c1ccc2c(c1)N(Cc1ccc(Cl)cc1)C(=O)c1ccccc1S2(=O)=O)C1CCCCC1 [Inhibitor 83-35] ... satisfied
CCN1C(=O)c2ccccc2[S+]([O-])c2ccc(C(=O)NCCCN3CCN(C)CC3)cc21 (stereo not drawn) [Inhibitor 83-14] ... not satisfied
O=C(NCCN1CCN(Cc2ccccc2)CC1)c1ccc2c(c1)N(Cc1cccc(Cl)c1)C(=O)c1ccccc1[S+]2[O-] (stereo not drawn) [Inhibitor 83-69] ... not satisfied
CN(CCNC(=O)c1ccc2c(c1)N(Cc1ccccc1)C(=O)c1ccccc1S2(=O)=O)C1CCCCC1 [Inhibitor 83-54] ... satisfied

Query: Does pIC50 meet or surpass 3 for CCC1CCCCN1CCCNC(=O)c1ccc2c(c1)N(Cc1ccc(Cl)cc1)C(=O)c1ccccc1S2(=O)=O (stereo not drawn) [Inhibitor 83-27] ?
Reply: satisfied

Query: Does pIC50 meet or surpass 3 for CC(C)CN(CCCNC(=O)c1ccc2c(c1)N(Cc1cccc(Cl)c1)C(=O)c1ccccc1S2(=O)=O)CC(C)C [Inhibitor 83-81] ?
Reply: not satisfied

Query: Does pIC50 meet or surpass 3 for CCCN(CCC)CCCNC(=O)c1ccc2c(c1)N(Cc1ccc(F)cc1)C(=O)c1ccccc1[S+]2[O-] (stereo not drawn) [Inhibitor 83-05] ?
Reply: not satisfied

Query: Does pIC50 meet or surpass 3 for Cc1cccc(CN2C(=O)c3ccccc3S(=O)(=O)c3ccc(C(=O)NCCCN4CCCC4)cc32)c1 [Inhibitor 83-22] ?
Reply: not satisfied

====

# assayed_target: MshC (Mycobacterium tuberculosis, UniProt P9WJM9)
# assay_explanation: Inhibition studies of MshC ligase activity (HEPES pH 7.5, HPLC)
# Assay type: biochemical, M. tuberculosis
# condition_info: [inhibitor] 1600 μM; 50 μM GlcN-Ins and 70 μM Cys
measured_attribute: % inhibition (%)
Please reply with the bare figure in % and do not write the unit itself.

The following molecules have reported results that may help.
O=C(O)CCS [β-mercaptopropionate, β-mercaptopropionic acid] ... −20
CC(=O)N[C@@H](CS)C(=O)O ... 20

In the following, a different molecule is considered.
Briefly, % inhibition measured for N[C@H](CS)C(=O)O : 15

====

# assayed_target: MshC (Mycobacterium tuberculosis)
# assay_explanation: biochemical
# Assay type: biochemical, M. tuberculosis
# condition_info: IC50, μM
Each entry below carries its reported IC50.

CCC1CCCCN1CCCNC(=O)c1ccc2c(c1)N(Cc1cccc(Cl)c1)C(=O)c1ccccc1S2(=O)=O (stereo not shown) ... 1100 µM
O=C(NCCCN1CCC(Cc2ccccc2)CC1)c1ccc2c(c1)N(Cc1cccc(Cl)c1)C(=O)c1ccccc1S2(=O)=O ... > 3000 µM
Cc1ccc(C)c(CN2C(=O)c3ccccc3S(=O)(=O)c3ccc(C(=O)NCCN4CCCCC4)cc32)c1 ... > 2000 µM
CN(CCc1ccccc1)C(=O)c1ccc2c(c1)N(Cc1cccc(Cl)c1)C(=O)c1ccccc1S2(=O)=O ... > 3000 µM
CN(CCCNC(=O)c1ccc2c(c1)N(Cc1cccc(Cl)c1)C(=O)c1ccccc1[S+]2[O-])C1CCCCC1 (stereo not shown) ... 102 µM

In the following, a different molecule is considered.
Briefly, IC50 measured for O=C(NCCCN1CCCC1)c1ccc2c(c1)N(Cc1cccc(Cl)c1)C(=O)c1ccccc1S2 : 135 µM

====

# assayed_target: MshC (Mycobacterium tuberculosis, UniProt P9WJM9)
# Sequence (P9WJM9 1-414): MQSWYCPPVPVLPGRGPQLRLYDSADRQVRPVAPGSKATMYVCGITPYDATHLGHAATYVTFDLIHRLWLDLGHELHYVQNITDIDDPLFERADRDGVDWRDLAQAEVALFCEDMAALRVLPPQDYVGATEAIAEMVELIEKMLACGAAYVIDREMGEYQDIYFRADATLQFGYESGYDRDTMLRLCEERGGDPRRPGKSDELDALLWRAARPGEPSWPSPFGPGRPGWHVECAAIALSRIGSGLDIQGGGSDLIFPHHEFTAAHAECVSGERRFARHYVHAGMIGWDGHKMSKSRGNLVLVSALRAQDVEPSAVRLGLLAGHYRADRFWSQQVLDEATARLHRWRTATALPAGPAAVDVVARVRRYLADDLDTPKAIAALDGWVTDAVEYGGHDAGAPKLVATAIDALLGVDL
# assay_explanation: biochemical
# Assay type: biochemical, M. tuberculosis
# condition_info: IC50
measured_attribute: pIC50
Scale explanation: pIC50 corresponds to minus log10 of a concentration expressed in moles per litre.

The following molecules have reported results that may help.
CN(CCCNC(=O)c1ccc2c(c1)N(Cc1ccccc1)C(=O)c1ccccc1[S+]2[O-])C1CCCCC1 (stereo not drawn) ... 3.40
CCC1CCCN(CCCNC(=O)c2ccc3c(c2)N(Cc2cccc(Cl)c2)C(=O)c2ccccc2[S+]3[O-])C1 (stereo not drawn) ... 4.10
O=C(NC1CCN(Cc2ccccc2)CC1)c1ccc2c(c1)N(Cc1cccc(Cl)c1)C(=O)c1ccccc1[S+]2[O-] (stereo not drawn) ... 2.82

In the following, a different molecule is considered.
Briefly, pIC50 measured for O=C(NCCN1CCN(Cc2ccccc2)CC1)c1ccc2c(c1)N(Cc1cccc(Cl)c1)C(=O)c1ccccc1[S+]2[O-] (stereo not drawn) [Inhibitor 83-62] : 2.68

====

# assayed_target: MshC (Mycobacterium tuberculosis, UniProt P9WJM9)
# Sequence (P9WJM9 1-414): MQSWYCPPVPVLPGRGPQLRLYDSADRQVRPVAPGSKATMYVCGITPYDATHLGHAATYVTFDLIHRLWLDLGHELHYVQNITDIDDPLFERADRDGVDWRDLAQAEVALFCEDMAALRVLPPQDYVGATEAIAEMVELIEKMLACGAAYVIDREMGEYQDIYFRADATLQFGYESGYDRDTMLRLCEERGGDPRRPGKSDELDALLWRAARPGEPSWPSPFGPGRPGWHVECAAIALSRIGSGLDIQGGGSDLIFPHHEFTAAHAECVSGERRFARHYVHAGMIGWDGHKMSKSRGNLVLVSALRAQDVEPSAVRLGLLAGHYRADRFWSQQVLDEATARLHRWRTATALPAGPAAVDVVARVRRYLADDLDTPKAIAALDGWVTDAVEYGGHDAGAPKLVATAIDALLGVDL
# assay_explanation: biochemical
# Assay type: biochemical, M. tuberculosis
# condition_info: IC50
Each entry below carries its reported IC50.

The following compounds have reported results that may help.
CCCN(CCC)CCCNC(=O)c1ccc2c(c1)N(Cc1cccc(Cl)c1)C(=O)c1ccccc1S2(=O)=O ... 0.98 mM
O=C(NCCCN1CCOCC1)c1ccc2c(c1)N(Cc1cccc(Cl)c1)C(=O)c1ccccc1S2(=O)=O ... ~3 mM

In the following, a different compound is considered.
Briefly, IC50 measured for CC1CC(C)CN(CCCNC(=O)c2ccc3c(c2)N(Cc2ccccc2)C(=O)c2ccccc2S3(=O)=O)C1 (stereo not drawn) : ~2 mM
